# Test system: Caco-2
# TEST_PROTOCOL: Cytotoxicity against human Caco2 cells assessed as reduction in cell survival at 25 to 100 uM after 72 hrs by MTT assay
# Type: cell-based
# CONDITION_LABEL: caco-2, 72 h

STRUCTURE: COCCn1cc(-c2csc(-c3c[nH]c4ccc(Br)cc34)n2)c2cccnc21
Activity: Toxic
--
STRUCTURE: COCCn1cc(-c2csc(-c3c[nH]c4ccc(F)cc34)n2)c2cccnc21
Activity: Toxic
--
STRUCTURE: COCCn1cc(-c2csc(-c3c[nH]c4ccccc34)n2)c2cccnc21
Activity: Toxic

###

# System: SK-MEL-5
# TEST_PROTOCOL: Growth inhibition of human SK-MEL-5 cells incubated for 48 hrs by sulforhodamine B assay
# Assay type: functional
# CONDITION_LABEL: SK-MEL-5, 48 h
Reported GI50 by item:
# output: bare number, implied unit µM

Sample answers from the record:
STRUCTURE: COCCn1cc(-c2csc(-c3c[nH]c4ccc(Br)cc34)n2)c2cccnc21
UNITS: µM
GI50: 3.24
--
STRUCTURE: COCCn1cc(-c2csc(-c3c[nH]c4ccc(F)cc34)n2)c2cccnc21
UNITS: µM
GI50: 2.69
--
STRUCTURE: COCCn1cc(-c2csc(-c3c[nH]c4ccccc34)n2)c2cccnc21
UNITS: µM
GI50: 3.22

Now for another entry.
Entry COCCn1cc(-c2nc(-c3c[nH]c4ncccc34)cs2)c2cc(OC)ccc21 : reported GI50 = ? 5.53

###

# System: LOX IMVI
# TEST_PROTOCOL: Growth inhibition of human LOXIMVI cells incubated for 48 hrs by sulforhodamine B assay
# Format: functional
MEASUREMENT_TYPE: GI50 (µM)
Report only the number, with the unit µM understood.

Field: example entries. Status: answers known.
STRUCTURE: COCCn1cc(-c2csc(-c3c[nH]c4ccccc34)n2)c2cccnc21
NUMERIC_RESULT: 3.96
//
STRUCTURE: COCCn1cc(-c2csc(-c3c[nH]c4ccc(F)cc34)n2)c2cccnc21
NUMERIC_RESULT: 3.44
//
STRUCTURE: COCCn1cc(-c2csc(-c3c[nH]c4ccc(Br)cc34)n2)c2cccnc21
NUMERIC_RESULT: 2.67

Which GI50 value belongs to COCCn1cc(-c2nc(-c3c[nH]c4ncccc34)cs2)c2cc(OC)ccc21 ? 3.69

###

# Tested on: MCF7
# TEST_PROTOCOL: Growth inhibition of human MCF7 cells incubated for 48 hrs by sulforhodamine B assay
# Format: functional
# CONDITION_LABEL: MCF7, 48 h
MEASUREMENT_TYPE: GI50 (nM)
# value in nM; strip the unit string

Some solved entries appear below for comparison.
STRUCTURE: COCCn1cc(-c2csc(-c3c[nH]c4ccccc34)n2)c2cccnc21
UNITS: nM
NUMERIC_RESULT: 1740
//
STRUCTURE: COCCn1cc(-c2csc(-c3c[nH]c4ccc(F)cc34)n2)c2cccnc21
UNITS: nM
NUMERIC_RESULT: 2090
//
STRUCTURE: COCCn1cc(-c2nc(-c3c[nH]c4ncccc34)cs2)c2cc(OC)ccc21
UNITS: nM
NUMERIC_RESULT: 50

Query (compound): COCCn1cc(-c2csc(-c3c[nH]c4ccc(Br)cc34)n2)c2cccnc21 ; field requested: GI50 1790
